# Test system: ATP;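 further: ATP exposure 15 min at 22 °C before imaging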
# assay remarks: switch fluorescence ratio, 500 uM ATP over buffer (Cy3 cluster intensity, sum of 5 cycles each) (fold (ratio)); higher = stronger signal-on switching upon ATP binding; sequences stand for … in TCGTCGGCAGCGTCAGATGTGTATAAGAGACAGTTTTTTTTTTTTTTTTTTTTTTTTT…TC
# setup conditions: aptamer strand: ATP DNA aptamer (quencher-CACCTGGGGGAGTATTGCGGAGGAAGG + anchor), 100 nM annealed; ATP concentration: 500 uM
readout name: switch fluorescence ratio
# print the numeric value only

Asked: For the record GCCTGAACTT , what value of switch fluorescence ratio is listed for ATP?
Given back: 1.03

Asked: Consider next the sequence TCGGGTGAAC in the same way.
Given back: 0.983

Asked: For TTCCCTAAGG then?
Given back: 2.35

Asked: Same thing, different sequence: AAGGGGACTT
Given back: 1.02

Asked: Now give it for ATGGTGTGAG too.
Given back: 1.02

Asked: Entry ACATCCCGTT please
Given back: 1.05

Asked: Follow-up item: TTTTATGGAC
Given back: 1.03

Asked: // same read-out, input: GGCCGGGACT
Given back: 0.987

Asked: Let us now turn to GGGATAGGCT
Given back: 1.02

Asked: Try the sequence TGGTCGGCAA
Given back: 1.04

Asked: Now this one: ATAACACAGG
Given back: 1.28

Asked: Now consider TGGGGGTTAT .
Given back: 0.993

Asked: Next: TTTTCAGTGT
Given back: 0.996

Asked: Continue with GGGAGGGGAG
Given back: 0.981

Asked: Let us now turn to CCAAATGGTG
Given back: 1.16

Asked: Follow-up entry: ATGGAAGGGC
Given back: 1.01

Asked: // repeat for TCACGCAGGG and report
Given back: 1.03

Asked: Record: GGGGGGGGGG
Given back: 1.02

Asked: Now the sequence CCTGTTGGGG
Given back: 0.991

Asked: Now the same for AAAGTTTGAC
Given back: 1

###

# Test system: ATP;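 further: ATP exposure 15 min at 22 °C before imaging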
# assay remarks: switch fluorescence ratio, 500 uM ATP over buffer (Cy3 cluster intensity, sum of 5 cycles each) (fold (ratio)); higher = stronger signal-on switching upon ATP binding; sequences stand for … in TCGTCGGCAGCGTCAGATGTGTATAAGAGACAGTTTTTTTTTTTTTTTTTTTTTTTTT…TC
# setup conditions: aptamer strand: ATP DNA aptamer (quencher-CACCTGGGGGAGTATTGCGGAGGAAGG + anchor), 100 nM annealed; ATP concentration: 500 uM
readout name: switch fluorescence ratio

Asked: Request - read-out switch fluorescence ratio | tested on ATP | sequence ATGTTTAGAA;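 further: ATP exposure 15 min at 22 °C before imaging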
Given back: 0.961

Asked: Input GTGGGTTTGG
Given back: 0.999

Asked: Same again, this time with GAAGTTTGAT
Given back: 0.987

Asked: How about TCAGAGGGTT ?
Given back: 1.01

Asked: And what about the sequence GGGCATGGTG ?
Given back: 1.05

Asked: Now give it for CCTGATAATT too.
Given back: 1.02

Asked: Could you do the same for TAGGTTTGCG , please?
Given back: 0.994

Asked: Quick one: AAAGGAACTC
Given back: 0.999

Asked: For AAGGGTAGTT then?
Given back: 0.997

Asked: Entry TCTTTTCGAA please
Given back: 1.01

Asked: Cool, now TGGGTGAGGG
Given back: 1

Asked: Can you check ATGAGAAAAG next?
Given back: 0.991

Asked: What do we get for TCAGCATGGT ?
Given back: 1.04

Asked: Moving on to TTCGTGTCCC
Given back: 0.994

Asked: Queued: GATTGTGGAG
Given back: 1.01

Asked: Check ATTATCCGCT too.
Given back: 1.15

Asked: Next entry: GTGGGGATGT
Given back: 1.01

Asked: Same question, GTAGTCACGA this time
Given back: 1.01

Asked: Now this one: CGTTTTATAG
Given back: 0.997

Asked: Subsequent entry: TGGGGGCGTA
Given back: 0.964

Asked: Also TCATTTGGTT , if possible.
Given back: 0.988

Asked: Next: CATTTAGACG
Given back: 1.01

Asked: Continue with GCATTTGGGG
Given back: 0.969

Asked: Queued: AAAAATATGA
Given back: 1.01

Asked: Record: AGGGGTTCGG
Given back: 0.992

Asked: TTGAGGTTGA ?
Given back: 0.994

Asked: Okay, and TTTTATGCCC ?
Given back: 0.977

Asked: Continue with GCGGGGTTTT
Given back: 1.01

Asked: Subsequent entry: TTACGGGGTA
Given back: 1

Asked: Please answer likewise for GGCCTTGGCA
Given back: 1.03

Asked: Entry to check: TTAATCGTAG
Given back: 0.991

Asked: Proceed to TGTTTTAAGT
Given back: 0.999

Asked: Try this sequence too: ATTTGTTACG
Given back: 1.01

Asked: Same thing, different sequence: TATTATGAGA
Given back: 0.983

Asked: Please answer likewise for TGGGTAGTAC
Given back: 1.04

Asked: And what about the sequence TTTTCAAGGA ?
Given back: 0.993

Asked: // query: CAGGGTGGTT
Given back: 1.03

Asked: Further, for GATTTAACGA ?
Given back: 0.985

Asked: Now consider AGCGATGCTT and answer again.
Given back: 1.13

Asked: Try TACTTGAATT next.
Given back: 1.02

Asked: Next sequence up: GGTTGGGACT
Given back: 0.994

Asked: Similarly, ATAAACCTAA ?
Given back: 1.05

Asked: Another sequence to look at: TTTTTGGACT
Given back: 0.983

Asked: Another sequence to check: GCCTATTGTT
Given back: 0.983

Asked: Same for TAACATGTGG
Given back: 1.02

Asked: Same read-out for TTGCTACCAC ?
Given back: 1.07

Asked: Same question, ATTAATTGTT this time
Given back: 0.993

Asked: Same question for ACGGTTTTGC please.
Given back: 0.997

Asked: Entry to check: GTGTATAGGC
Given back: 1.09

Asked: How about this sequence: TTTGCTTTGG
Given back: 0.997

Asked: Further, for TCGGTTTAAC ?
Given back: 1.04

Asked: Similarly, CGCGACTAAA ?
Given back: 0.995

Asked: Same for TCCGGCGGTG
Given back: 1.03

Asked: Next up: AGAGTTAAAA
Given back: 1.04

Asked: Query AGAATCGACT next
Given back: 0.997

Asked: Same question for GGTCTCAGGT please.
Given back: 1.03

Asked: Would you mind doing TAGGGTAATT as well?
Given back: 0.996

Asked: Try the sequence AGAGATTACG
Given back: 1.02

Asked: Try this sequence next: TCCCACTGCT
Given back: 1.03

Asked: Note, next up: GTGAGAGGGG
Given back: 1.01

Asked: Follow-up entry: CGGCAAGTGG
Given back: 1.05

Asked: What do you have for ATGGACTCAA ?
Given back: 1.05

Asked: Lookup ACTGGGGATT
Given back: 1.04

Asked: Same again, this time with GCCTATGAGG
Given back: 0.993

Asked: Please answer likewise for TTTAGACAAT
Given back: 1.02

Asked: And GCAGGTGTGC ?
Given back: 1.13

Asked: Same again, this time with TAATCGGGAA
Given back: 1

Asked: What about AAGTCTGCCA ?
Given back: 1.47

Asked: Request: GATTCGCTAA
Given back: 1.12

Asked: Let us now turn to TTCTTAAAAG
Given back: 1.02

Asked: Thanks! And GGAGGGGCGA ?
Given back: 1.1

Asked: Same read-out for GATTGAAAGA ?
Given back: 0.986

Asked: Can you handle CAGTTGTTGC next?
Given back: 0.984

Asked: Now consider AAGTGATTTG .
Given back: 1.01

Asked: And the next one, CGTATTATGG ?
Given back: 0.998

Asked: Please do the same for GGGGTTAGAA as well.
Given back: 0.984

Asked: Cool, now GGGGATGGTT
Given back: 0.974

Asked: How about this sequence: CCGGGGCACT
Given back: 1.34

Asked: One more sequence: AACAGGGGCT
Given back: 1.09

Asked: Next sequence: CACTATAGCG
Given back: 1.04

Asked: Same lookup for GATAAACAAT , please.
Given back: 1.19

Asked: Item: TTTTTTTTGC
Given back: 1.02

Asked: Same lookup for AGGGTCGGGC , please.
Given back: 1.03

Asked: Please do the same for GGAAGAGAAC as well.
Given back: 0.995

Asked: AAGCGTGCCT , same question.
Given back: 1.01

Asked: Then ATAAGGGCGA ?
Given back: 0.985
